- Experimental Details: NCI Yeast Anticancer Drug Screen. Data for the mlh1 rad18 strain (AID 175)
- Condition Set: S. cerevisiae mlh1 rad18 strain growth inhibition; at 5.0 µM (retest, dose inferred, filed as 0.5); stronger effect = higher value
The panel holds about 79,000 compounds, 15% with a hit somewhere; the sample as a whole holds those more often. Active and inactive are the calls of the source. No stated cut-off is given here; in the data, active means growth inhibition above about 70%; inactive means the rest.
Measurement Label: growth inhibition

Query string: State the recorded growth inhibition for this entry: Cc1c2cnccc2c(C)c2c1c1ccccc1n2CCCN
Result string: 16% (inactive)

Query string: State the recorded growth inhibition for this entry: O=C1c2ccc(Cl)cc2C(=O)c2cc(Cl)ccc21
Result string: 8% (inactive)

Query string: State the recorded growth inhibition for this entry: Cc1nc2c(O)c3c(c(O)c2nc1C)C1C=CC3CC1
Result string: 20% (inactive)

Query string: State the recorded growth inhibition for this entry: N#CC12CC3=C(N=C1NC1=C(CCc4ccccc41)C2)c1ccccc1CC3 (stereo unspecified)
Result string: 20% (inactive)

Query string: State the recorded growth inhibition for this entry: CN(C)c1ccc(C2(Cl)c3ccccc3N(Cc3ccccc3)c3ccccc32)cc1
Result string: 99% (active)

Query string: State the recorded growth inhibition for this entry: CN(C)c1ccc(/C=C(/C#N)c2ccc(Cl)cc2)cc1
Result string: -17% (inactive)

----------
- Experimental Details: NCI Yeast Anticancer Drug Screen. Data for the bub3 strain (AID 167)
- Condition Set: S. cerevisiae bub3 mutant strain, at 50.0 µM (retest, dose inferred, filed as 5.0)
This is part of a sample that, as a whole, favours compounds with a hit. Of some 79,000 tested, about 15% had one in any assay. Activity calls are given as the source filed them. No stated cut-off is given here; in the data, active means growth inhibition above about 70%; inactive means the rest.
Respond using exactly one of the listed classes: t = active, f = inactive

Query string: Query: recorded result category for CCC1CCCN1CCOC(=O)C(c1ccccc1)C1C=CCC1 (stereo not given) in this test
Result string: f

Query string: Query: recorded result category for O=c1oc2ccccc2c(O)c1/C=N/C(=S)NCc1ccccc1 in this test
Result string: f

Query string: Query: recorded result category for CCN(CC)CCNc1c2ccccc2nc2cccc([N+](=O)[O-])c12 in this test
Result string: t

Query string: Query: recorded result category for O=C(c1ccc(O)c(Br)c1)c1cc(Br)ccc1O in this test
Result string: t

Query string: Query: recorded result category for CCCC(Sc1ccccc1)c1ccccc1NC(C)=O (stereo not given) in this test
Result string: f

Query string: Query: recorded result category for Oc1cc2ccccc2cc1O in this test
Result string: t

Query string: Query: recorded result category for Oc1ccc(N=Nc2ccc(Cl)cc2)cc1O in this test
Result string: t

Query string: Query: recorded result category for CN(C)CCCN=c1c2ccccc2n(O)c2ccccc12 in this test
Result string: f

Query string: Query: recorded result category for CN[C@@H](Cc1cccc2ccccc12)C(=O)N[C@@H](CC(C)C)B(O)O in this test
Result string: f

Query string: Query: recorded result category for COC(=O)c1c[nH]c2ccc(Br)cc12 in this test
Result string: f

Query string: Query: recorded result category for CCOc1ccccc1N=Nc1ccc2oc(=O)c(C(=O)Nc3cccc(C)c3)cc2c1 in this test
Result string: f

Query string: Query: recorded result category for Oc1cc(-[n+]2ccccc2)c(O)c2ccccc12 in this test
Result string: t

Query string: Query: recorded result category for CCOc1ccccc1C(=O)Nc1cc(C)nn1-c1ccccc1 in this test
Result string: f

Query string: Query: recorded result category for O=C(NC[N+]12CCO[B-]1(c1ccc(Br)cc1)OCC2)c1ccccc1O (stereo not given) in this test
Result string: f

Query string: Query: recorded result category for CCOC(=O)C[P+](c1ccc(C)cc1)(c1ccc(C)cc1)c1ccc(C)cc1 in this test
Result string: t

Query string: Query: recorded result category for [Cl][Pt+2][Cl].[NH-]CC1(C[NH-])CCCC1 in this test
Result string: f

Query string: Query: recorded result category for CCCC(=O)N(C(=O)CCC)C1=C(Cl)C(=O)c2ccccc2C1=O in this test
Result string: t

Query string: Query: recorded result category for CCCCCN(CCCCC)C(=S)Nc1ccccc1 in this test
Result string: t

Query string: Query: recorded result category for CC(CO)(CO)Cc1ccccc1 in this test
Result string: f

Query string: Query: recorded result category for Brc1cc2c(c(Br)c1Br)C(Br)(Br)C(c1ccccc1)=N2 in this test
Result string: t

Query string: Query: recorded result category for ICCCCSc1cc(-c2ccccc2)[o+]c2ccccc12 in this test
Result string: t

Query string: Query: recorded result category for Cc1cc(N=O)c(NO)cc1C in this test
Result string: f

Query string: Query: recorded result category for COc1ccc2cc(C3CCCC3(C)CC(=O)O)ccc2c1 (stereo not given) in this test
Result string: f

Query string: Query: recorded result category for C=C1C(=O)C23CC[C@H]4C(C)(CCC[C@]4(C)C(=O)O)[C@@H]2CCC1C3 (stereo not given in full) in this test
Result string: t

Query string: Query: recorded result category for COc1cccc2c1C1c3ccccc3Sc3cccc(c31)O2 (stereo not given) in this test
Result string: f

----------
- Experimental Details: NCI Yeast Anticancer Drug Screen. Data for the rad50 strain (AID 155);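 further: 0% = growth of vehicle-only cultures of the same strain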
- Condition Set: S. cerevisiae rad50 strain growth inhibition; at 50.0 µM (retest, dose inferred, filed as 5.0); stronger effect = higher value
This is part of a sample that, as a whole, favours compounds with a hit. Of some 79,000 tested, about 15% had one in any assay.
Label 1.0 when growth inhibition is at or above 70%; otherwise label 0.0.

Query string: Record COC(=O)N/N=C(\c1ccc(O)cc1)C(C)C1(O)C(=O)Nc2ccccc21 (centres undefined) ; criterion: growth inhibition no lower than 70%. Met?
Result string: 0.0

Query string: Record OC1CC2CCC(C1)N2CCCN1c2ccccc2Sc2ccc(Cl)cc21 (centres undefined) ; criterion: growth inhibition no lower than 70%. Met?
Result string: 1.0

Query string: Record CC1C(C(=O)O)CC([N+](=O)[O-])C(Cl)C1[N+](=O)[O-] (centres undefined) ; criterion: growth inhibition no lower than 70%. Met?
Result string: 0.0

Query string: Record Cc1ccc(C(=O)CC(N)C(=O)O)cc1 (centres undefined) ; criterion: growth inhibition no lower than 70%. Met?
Result string: 0.0

Query string: Record CCCCCCCCCCCCCCCC[N+](C)(C)CCl ; criterion: growth inhibition no lower than 70%. Met?
Result string: 1.0

Query string: Record COc1ccc(/C=C2\CCCc3ccccc3C2=O)cc1 ; criterion: growth inhibition no lower than 70%. Met?
Result string: 0.0

Query string: Record COc1ccc(C(CC(=O)c2ccc(C)cc2)Sc2ccccc2N)cc1 (centres undefined) ; criterion: growth inhibition no lower than 70%. Met?
Result string: 0.0

Query string: Record S=P([S][Sn]([S]P(=S)(c1ccccc1)c1ccccc1)([c]1ccccc1)[c]1ccccc1)(c1ccccc1)c1ccccc1 ; criterion: growth inhibition no lower than 70%. Met?
Result string: 1.0

Query string: Record O=C(CNS(=O)(=O)Cc1ccccc1)NCC(=O)NNc1ccccc1 ; criterion: growth inhibition no lower than 70%. Met?
Result string: 0.0

Query string: Record COc1ccc2nc3cc(Cl)ccc3c(Nc3ccc(O)c(CN4CCN(C)CC4)c3)c2c1 ; criterion: growth inhibition no lower than 70%. Met?
Result string: 0.0

Query string: Record CCCCCCCCCCCCCCCCCCOC(=O)Nc1ccc(C)c(NC(=O)OCCCCCCCCCCCCCCCCCC)c1 ; criterion: growth inhibition no lower than 70%. Met?
Result string: 0.0

Query string: Record NNC(=S)N/N=C(\CC1OC(=O)c2ccccc21)c1ccccc1O (centres undefined) ; criterion: growth inhibition no lower than 70%. Met?
Result string: 0.0

Query string: Record O=C(O)c1ccc([N+](=O)[O-])cc1.[Ag] ; criterion: growth inhibition no lower than 70%. Met?
Result string: 1.0

Query string: Record C/C(=N/NC(=S)NCc1ccccc1)c1ncccn1 ; criterion: growth inhibition no lower than 70%. Met?
Result string: 1.0

Query string: Record O=Cc1nc2c3cccnc3ccc2n1Cc1ccccc1 ; criterion: growth inhibition no lower than 70%. Met?
Result string: 0.0

Query string: Record S=C(Nc1ccc(N=Nc2ccccc2)cc1)SCc1ccccc1 ; criterion: growth inhibition no lower than 70%. Met?
Result string: 0.0

Query string: Record CN(c1ccccc1)c1c2c(oc(=O)c1Cl)-c1ccccc1SC2 ; criterion: growth inhibition no lower than 70%. Met?
Result string: 0.0

Query string: Record Cc1ccc(C(CN)(CCBr)c2ccc(C)cc2)cc1 ; criterion: growth inhibition no lower than 70%. Met?
Result string: 1.0

Query string: Record N#CC1CCC(c2ccccc2)(c2ccccc2)C1=O (centres undefined) ; criterion: growth inhibition no lower than 70%. Met?
Result string: 1.0

Query string: Record CCC(c1ccc(OC)cc1)C(O)(CC)c1ccc(OC)cc1 (centres undefined) ; criterion: growth inhibition no lower than 70%. Met?
Result string: 1.0

Query string: Record CC1CCCC(C)C1=O (centres undefined) ; criterion: growth inhibition no lower than 70%. Met?
Result string: 0.0

Query string: Record C=CCOc1ccccc1C(OCC)OCC ; criterion: growth inhibition no lower than 70%. Met?
Result string: 1.0

Query string: Record CC(C)C1=CC23CCC4C(C)(C(=O)O)CCCC4(C)C2CC1CC3C#N (centres undefined) ; criterion: growth inhibition no lower than 70%. Met?
Result string: 0.0

Provenance of the data: PubChem BioAssay (NCI)
